target: human Claudin 18.2 (hCLDN18.2) (human, UniProt P56856-2 1-261); experiment: cell-based or functional assay
In this section we review reported CDC EC50 values for a set of binders.
Express it in µg/mL; write the number only.

INSERT INTO measurements (binder, recorded_result) VALUES
  ('ch-251H11 (antibody, V domains shown, also called chimeric antibody of clone 251H11) VH: QVQLKQSGAELVRPGASVKLSCKTSGYTFTTFWIHWIKQRSGQGLEWIAKIYPGTGYTYYNEKFKGKATLTADKSSSAAYMQLSSLKSEDSAVYFCAREGYGKGNAVDFWGQGSSVTVSS VL: DIVMTQSPSSLTVTAGEKVTMSCKSSQSLFNSGNQKNYLTWYQQKPGQPPKLLIYWASTRESGVPDRFTGSGSGTDFTLTIDSVQAEDLAVYYCQNDYTYPSTFGGGTNLEIK', 0.359),
  ('ch-32G8 (antibody, V domains shown, also called chimeric antibody of clone 32G8) VH: EVHLQQSGPVLVKPGASVKMSCKASGYTFTDYHMNWVKQSHGKSLEWIGVINPYNGGIRYNQKFKGKATLTVDKSSSTAYMELNSLTSEDSAVYYCATIYYGNSFAYWGQGTLVTVSA VL: DIVMTQSPSSLTVTAGEKVTMSCKSSQSLLNSGNQKNYLTWYQQKPGQPPKLLIYWASTRESGVPDRFTGSGSGTDFTLTISSVQAEDLAVYYCQNNYIYPFTFGGGTKLEIR', 0.108),
  ('ch-299B2 (antibody, V domains shown, also called chimeric antibody of clone 299B2) VH: QVQLKQSGPELVRPGASVKLSCKTSGYIFTNYWIHWVKQRSGQGLEWVVRIYPGTGNTYYNEKFTGKATLTADKSSSTAYMQLSSLKYEDSAVYFCSREGYGKGNSMDYWGQGTSVTVSS VL: DIVMTQSPSSLTVTAGEKVTMNCKSSQSLLNSGNQKNYLTWYQQKPGQPPKLLFYWASTRESGVPDRFTGSGSGTDFTLTISSVQAEDLAVYHCQNAYYYPYTFGGGTKLEMK', 0.124),
  ('ch-252F11 (antibody, V domains shown, also called chimeric antibody of clone 252F11) VH: EIQLVESGGGLVRPGGSLKLSCAASGFSFKNYVMSWVRQSPERRLEWVAEIRTGGDYTYYVDTVTGRFTISRDNAKNTLYLEMTSLRSEDTATYYCARVGYGNSLDYWGQGTTLTVSS VL: DIVMTQSPSSLTVTAGEKVTMSCKSSQSLLNSGNQKNYLTWYQQKPGQPPKLLIYWASTRESGVPDRFTGSGSGTDFTLTISSVQAEDLAVYSCQNNYFYPLTFGAGTELELK', 0.179);

# evaluate next
Reported CDC EC50 for ch-37G8 (antibody, V domains shown, also called chimeric antibody of clone 37G8) VH: EVQLQQSGPVLVKPGASVKMSCKASGYTFSDYHMNWVKQSHGKSLEWVGLINPYNGGIRFNQKFKGKATLTVDKSSSTAYMELNSLTSEDSAVYYCATIYYGNSFAYWGQGTLVTVSA VL: DIVMTQSPSSLTVTAGEKVTLTCKSGQSLLNSGNQKNYLTWYQQKPGQPPKLLIYWASTRESGVPDRFTGSGSGTDFTLTISGVQAEDLAVYYCQNDYFYPYTFGGGTKLEIK was 0.16
